Tested on: RS4;11 cells
Assay: Cell viability assay, MTS, 48 h, RS4;11
Assay type: cell-based
Details: Homo sapiens, RS4-11, 48 h, 48 hours, read-out: IC50 (48 hours) RS4;11
Quick reference for IC50 among some molecules

Recorded results for 2 molecules are shown here.
molecule	target	property-name	assay-result
Cc1ncsc1-c1ccc([C@H](C)NC(=O)[C@@H]2C[C@@H](O)CN2C(=O)[C@@H](NC(=O)CCCCCCCCC(=O)NC[C@@]2(C)CCC(c3ccc(Cl)cc3)=C(CN3CCN(c4ccc(C(=O)NS(=O)(=O)c5ccc(N[C@H](CCN6CCOCC6)CSc6ccccc6)c(S(=O)(=O)C(F)(F)F)c5)cc4)CC3)C2)C(C)(C)C)cc1	RS4;11 cells	IC50	> 500 nM
CC1(CNC(=O)CCCCCCCCCCNc2cccc3c2C(=O)N(C2CCC(=O)NC2=O)C3=O)CCC(c2ccc(Cl)cc2)=C(CN2CCN(c3ccc(C(=O)NS(=O)(=O)c4ccc(N[C@H](CCN5CCOCC5)CSc5ccccc5)c(S(=O)(=O)C(F)(F)F)c4)cc3)CC2)C1 (stereo partly drawn)	RS4;11 cells	IC50	150 to 500 nM

// next entry
IC50 for Cc1ncsc1-c1ccc([C@H](C)NC(=O)[C@@H]2C[C@@H](O)CN2C(=O)[C@@H](NC(=O)CCCCCC(=O)NCCN(C)CC2(C)CCC(c3ccc(Cl)cc3)=C(CN3CCN(c4ccc(C(=O)NS(=O)(=O)c5ccc(N[C@H](CCN6CCOCC6)CSc6ccccc6)c(S(=O)(=O)C(F)(F)F)c5)cc4)CC3)C2)C(C)(C)C)cc1 (stereo partly drawn) is 150 to 500 nM

----------
Test system: RS4;11 cells
Assay: Cell viability assay, MTS, 48 h, RS4;11
Format: cell-based
Details: Homo sapiens, RS4-11, 48 h, 48 hours, read-out: IC50 (48 hours) RS4;11
property-name: IC50

IC50 for Cc1ncsc1-c1ccc([C@H](C)NC(=O)[C@@H]2C[C@@H](O)CN2C(=O)[C@@H](NC(=O)CCCCCCC(=O)NCCN(C)CC2(C)CCC(c3ccc(Cl)cc3)=C(CN3CCN(c4ccc(C(=O)NS(=O)(=O)c5ccc(N[C@H](CCN6CCOCC6)CSc6ccccc6)c(S(=O)(=O)C(F)(F)F)c5)cc4)CC3)C2)C(C)(C)C)cc1 (stereo partly drawn) is 50 to 150 nM

IC50 for Cc1ncsc1-c1ccc([C@H](C)NC(=O)[C@@H]2C[C@@H](O)CN2C(=O)[C@@H](NC(=O)CCCCCN2CCN(CC3(C)CCC(c4ccc(Cl)cc4)=C(CN4CCN(c5ccc(C(=O)NS(=O)(=O)c6ccc(N[C@H](CCN7CCOCC7)CSc7ccccc7)c(S(=O)(=O)C(F)(F)F)c6)cc5)CC4)C3)CC2)C(C)(C)C)cc1 (stereo partly drawn) is < 50 nM

IC50 for Cc1ncsc1-c1ccc([C@H](C)NC(=O)[C@@H]2C[C@@H](O)CN2C(=O)[C@@H](NC(=O)CCCCCC#CC#CC2(C)CCC(c3ccc(Cl)cc3)=C(CN3CCN(c4ccc(C(=O)NS(=O)(=O)c5ccc(N[C@H](CCN6CCOCC6)CSc6ccccc6)c(S(=O)(=O)C(F)(F)F)c5)cc4)CC3)C2)C(C)(C)C)cc1 (stereo partly drawn) is > 500 nM

----------
Test system: RS4;11 cells
Experiment: Cell viability assay, MTS, 48 h, RS4;11
Type: cell-based
Conditions: Homo sapiens, RS4-11, 48 h, 48 hours, read-out: IC50 (48 hours) RS4;11
property-name: IC50

Recorded results for 2 molecules are shown here.
molecule	IC50
Cc1ncsc1-c1ccc([C@H](C)NC(=O)[C@@H]2C[C@@H](O)CN2C(=O)[C@@H](NC(=O)CCCCCCC(=O)N2CCN(C[C@]3(C)CCC(c4ccc(Cl)cc4)=C(CN4CCN(c5ccc(C(=O)NS(=O)(=O)c6ccc(N[C@H](CCN7CCOCC7)CSc7ccccc7)c(S(=O)(=O)C(F)(F)F)c6)cc5)CC4)C3)CC2)C(C)(C)C)cc1 [degrader #44]	< 50 nM
Cc1ncsc1-c1ccc([C@H](C)NC(=O)[C@@H]2C[C@@H](O)CN2C(=O)[C@@H](NC(=O)CCCCCCCC(=O)NCCN(C)CC2(C)CCC(c3ccc(Cl)cc3)=C(CN3CCN(c4ccc(C(=O)NS(=O)(=O)c5ccc(N[C@H](CCN6CCOCC6)CSc6ccccc6)c(S(=O)(=O)C(F)(F)F)c5)cc4)CC3)C2)C(C)(C)C)cc1 (stereo partly drawn) [compound 62]	< 50 nM

// next entry
IC50 for Cc1ncsc1-c1ccc([C@H](C)NC(=O)[C@@H]2C[C@@H](O)CN2C(=O)[C@@H](NC(=O)CCCCCCCC(=O)N2CCN(C(=O)C3(C)CCC(c4ccc(Cl)cc4)=C(CN4CCN(c5ccc(C(=O)NS(=O)(=O)c6ccc(N[C@H](CCN7CCOCC7)CSc7ccccc7)c(S(=O)(=O)C(F)(F)F)c6)cc5)CC4)C3)CC2)C(C)(C)C)cc1 (stereo partly drawn) [compound 66] is < 50 nM

Data origin: patent US20220169628A1
